Value source: the supplement of paper PMC9694430

- Test system: LOC_OS05G07850-cb002
- experiment-summary: thermal shift delta Tm vs DMSO control; higher = stronger stabilization (binding);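 further: purified Escherichia coli-expressed rice kinase domain construct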
- condition-notes: 12.5 µM; protein concentration 2 µM
property-measured: thermal shift delta Tm (°C)
Reply with just the number (in °C).

Example results:
chemical-structure | uom | number
CCn1cc(-c2ccnc3[nH]c(-c4cccc(CN(C)C)c4)cc23)c(-c2ccc(NC(=O)N(C)C)cc2)n1 | °C | 8.63
CS(=O)(=O)N1CCN(Cc2cc3nc(-c4cccc5[nH]ncc45)nc(N4CCOCC4)c3s2)CC1 | °C | 5.5
Cc1cc2c(F)c(Oc3ncnn4cc(OC[C@@H](C)O)c(C)c34)ccc2[nH]1 | °C | 2.97

Looking up C#Cc1cccc(Nc2ncnc3cc4c(cc23)OCCOCCOCCO4)c1 , I found its thermal shift delta Tm recorded as 8.46

Looking up C#Cc1cccc(Nc2ncnc3cc(OCCOC)c(OCCO)cc23)c1 , I found its thermal shift delta Tm recorded as 8.23

Looking up Cn1cnc2c(F)c(Nc3ccc(Br)cc3F)c(C(=O)NOCCO)cc21 , I found its thermal shift delta Tm recorded as 1.86

* * *

Entries annotated with measured thermal shift delta Tm
- Test system: LOC_OS05G16824-cb004
- experiment-summary: thermal shift delta Tm vs DMSO control; higher = stronger stabilization (binding)
- condition-notes: 12.5 µM; protein concentration 2 µM
Reply with just the number (in °C).

Example results:
molecule | experimental-system | property-measured | uom | number
CC1(C)CNc2cc(NC(=O)c3cccnc3NCc3ccncc3)ccc21 [Motesanib Diphosphate (AMG-706)] | LOC_OS05G16824-cb004 | thermal shift delta Tm | °C | -3.02
Cc1cnc(NC(=O)Nc2cc(Br)c(C)cc2OC[C@@H]2CNCCO2)cn1 | LOC_OS05G16824-cb004 | thermal shift delta Tm | °C | 5.41
CCN(CC)CCNC(=O)c1c(C)[nH]c(/C=C2\C(=O)Nc3ccc(-c4csc(-c5ccccc5)n4)cc32)c1C [Amcasertib (BBI503)] | LOC_OS05G16824-cb004 | thermal shift delta Tm | °C | 12.7
CNC(=O)c1ccc(Nc2ncc(C(F)(F)F)c(NCc3nccnc3N(C)S(C)(=O)=O)n2)cc1 | LOC_OS05G16824-cb004 | thermal shift delta Tm | °C | 9.21
Cc1c(CN2CCN(C(=O)[C@H](C)O)CC2)sc2c(N3CCOCC3)nc(-c3cnc(N)nc3)nc12 [Apitolisib (GDC-0980, RG7422)] | LOC_OS05G16824-cb004 | thermal shift delta Tm | °C | 1.9
Cc1cn(-c2cc(NC(=O)c3ccc(C)c(Nc4nccc(-c5cccnc5)n4)c3)cc(C(F)(F)F)c2)cn1 [Nilotinib (AMN-107)] | LOC_OS05G16824-cb004 | thermal shift delta Tm | °C | -8.56
Nc1[nH]nc2nnc(-c3c(-c4ccccc4)nn4ccccc34)cc12 | LOC_OS05G16824-cb004 | thermal shift delta Tm | °C | 2.12

# next molecule below
Looking up CCn1c(=O)c(-c2cc[nH]n2)cc2c(C)nc(N)nc21 , I found its thermal shift delta Tm recorded as -1.71

* * *

- Test system: LOC_OS07G06570-cb004
- experiment-summary: thermal shift delta Tm vs DMSO control; higher = stronger stabilization (binding)
- condition-notes: 12.5 µM; protein concentration 2 µM
Classify by measured thermal shift delta Tm: Met if it is equal to or exceeds 0.9 °C, Not met if it is smaller.

Example entries and their recorded answers appear below.
molecule | assigned-label
CC(C)N(CCC(=O)c1ccc2ccccc2c1)Cc1ccccc1 | Not met
Cc1ccc(C(=O)Nc2cccc(C(F)(F)F)c2)cc1Nc1nc(-c2cccnc2)nc2c1cnn2C | Met
C=CC(=O)Nc1cccc(Oc2nc(Nc3ccc(N4CCN(C)CC4)cc3)ncc2Cl)c1 | Not met
Cc1c(C(=O)N2CCOc3ccc(-c4ccc(N)nc4)cc3C2)ccc(S(C)(=O)=O)c1F | Met
CCOc1cn(-c2ccc(F)cc2C)nc1C(=O)Nc1ccc(Oc2ccnc3cc(OC)c(OC)cc23)c(F)c1 | Not met

Request: Form field: thermal shift delta Tm at least 0.9 °C? Entry: Cc1ccc(Nc2nccc(N(C)c3ccc4c(C)n(C)nc4c3)n2)cc1S(N)(=O)=O
Response: Met

Request: Form field: thermal shift delta Tm at least 0.9 °C? Entry: O=c1ccc2ccc(O)c(O)c2o1
Response: Met

Request: Form field: thermal shift delta Tm at least 0.9 °C? Entry: COc1cc2ncnc(Oc3ccc(CC(=O)Nc4cnn(C(C)C)c4)cc3)c2cc1OC
Response: Met

Request: Form field: thermal shift delta Tm at least 0.9 °C? Entry: CC1=C(C(=O)Nc2cc3cn[nH]c3cc2F)C(c2ccc(C(F)(F)F)cc2)CC(=O)N1 (centres undefined)
Response: Not met
